For each entry below, report its IC50 value.
- assayed_target: EGFR L858R/C797S (Homo sapiens, UniProt P00533, C797S/L858R)
- Sequence (P00533 25-1210 C797S/L858R): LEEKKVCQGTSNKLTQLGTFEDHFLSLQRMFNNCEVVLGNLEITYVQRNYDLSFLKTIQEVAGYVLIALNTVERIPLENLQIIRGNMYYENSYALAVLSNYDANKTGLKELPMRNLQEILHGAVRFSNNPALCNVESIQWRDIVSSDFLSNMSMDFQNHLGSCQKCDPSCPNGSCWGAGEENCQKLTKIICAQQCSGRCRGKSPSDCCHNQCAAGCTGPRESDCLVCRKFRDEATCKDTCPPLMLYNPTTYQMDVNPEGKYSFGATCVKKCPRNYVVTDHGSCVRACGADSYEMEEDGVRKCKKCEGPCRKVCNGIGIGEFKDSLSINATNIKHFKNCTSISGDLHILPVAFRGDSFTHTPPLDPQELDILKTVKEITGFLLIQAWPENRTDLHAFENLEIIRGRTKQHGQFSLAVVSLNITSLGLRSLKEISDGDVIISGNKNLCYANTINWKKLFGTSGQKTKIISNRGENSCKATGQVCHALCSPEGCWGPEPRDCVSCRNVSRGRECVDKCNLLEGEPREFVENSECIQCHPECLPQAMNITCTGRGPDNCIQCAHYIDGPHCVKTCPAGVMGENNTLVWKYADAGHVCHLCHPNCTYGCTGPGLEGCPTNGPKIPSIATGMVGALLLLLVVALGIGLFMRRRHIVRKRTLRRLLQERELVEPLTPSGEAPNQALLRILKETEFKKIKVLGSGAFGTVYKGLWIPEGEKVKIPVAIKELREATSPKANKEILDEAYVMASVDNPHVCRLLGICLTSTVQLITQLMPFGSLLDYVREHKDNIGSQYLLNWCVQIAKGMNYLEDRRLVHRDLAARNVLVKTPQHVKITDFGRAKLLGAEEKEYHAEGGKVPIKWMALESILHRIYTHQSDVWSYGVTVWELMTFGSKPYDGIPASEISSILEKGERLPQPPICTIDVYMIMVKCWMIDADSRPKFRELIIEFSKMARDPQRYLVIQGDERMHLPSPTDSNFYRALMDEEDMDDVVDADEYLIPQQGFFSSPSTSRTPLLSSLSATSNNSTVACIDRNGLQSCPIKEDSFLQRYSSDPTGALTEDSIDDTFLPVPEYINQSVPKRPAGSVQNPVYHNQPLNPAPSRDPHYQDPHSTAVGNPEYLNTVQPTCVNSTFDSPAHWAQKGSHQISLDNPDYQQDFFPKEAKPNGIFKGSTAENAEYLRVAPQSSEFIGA
- test_description: Biochemical EGFR kinase assay (Lance Ultra TR-FRET), double mutant L858R/C797S
- experimental_context: Km ATP; read-out: IC50 L858R/C797S (nM) Km ATP
Dear colleague, please return just the value in nM, with no unit written.

Form field: reported IC50 of O=S(=O)(C1CC1)n1cc(-c2nccc(Nc3cc(N[C@H]4CC[C@@H](NCCF)CC4)c(-c4cc5n(n4)CCCC5)cn3)n2)cn1 [Example 62] 0.2

Form field: reported IC50 of Cn1nc(-c2cnc(Nc3ccnc(-c4cnn(S(=O)(=O)C5CC5)c4)n3)cc2N[C@H]2CC[C@@](C)(O)CC2)cc1C(F)(F)F [Example 252] 4.3

Form field: reported IC50 of Cn1ccc(-c2cnc(Nc3ccnc(-c4cnn(S(=O)(=O)C5CC5)c4)n3)cc2NC2CCCC(NCC(F)F)C2)n1 (stereo not shown) [Example 224] 6.6

Form field: reported IC50 of CC(Nc1cc(Nc2ccnc(-c3cnn(S(=O)(=O)C4CC4)c3)n2)ncc1-c1ccn(C(F)F)n1)C(F)F (stereo not shown) [Example 213] 123

Form field: reported IC50 of Cc1cc(-c2cnc(Nc3ccnc(-c4cnn(S(=O)(=O)C5CC5)c4)n3)cc2N[C@H]2CC[C@@H](CO)CC2)nn1C [Example 280] 0.3

Form field: reported IC50 of C[C@]1(O)CC[C@@H](Nc2cc(Nc3ccnc(-c4cnn(C5CC5)c4)n3)ncc2-c2ccn(C(F)F)n2)CC1 [Example 140] 7.1

Form field: reported IC50 of O=S(=O)(C1CC1)n1cc(-c2nccc(Nc3cc(NCC4CC5(CNC5)C4)c(-c4ccn(C(F)F)n4)cn3)n2)cn1 [Example 26] 2.3

Form field: reported IC50 of C[C@H](CCF)Nc1cc(Nc2ccnc(-c3cnn(S(=O)(=O)C4CC4)c3)n2)ncc1-c1ccn(C(F)F)n1 [Example 212] 38.5

Form field: reported IC50 of Cn1ccc(-c2cnc(Nc3ccnc(-c4cnn(S(=O)(=O)C5CC5)c4)n3)cc2NCC2CCC(NCCF)CC2)n1 (stereo not shown) [Example 131] 0.4

Form field: reported IC50 of O=S(=O)(C1CC1)n1cc(-c2nccc(Nc3cc(N[C@H]4CC[C@@H](C(F)F)CC4)c(-c4ccn(C(F)F)n4)cn3)n2)cn1 [Example 157] 55.7

Form field: reported IC50 of Cn1nc(-c2cnc(Nc3ccnc(-c4cnn(S(=O)(=O)C5CC5)c4)n3)cc2N[C@H]2CC[C@H](CCO)CC2)cc1C(F)(F)F [Example 263] 6.3

Form field: reported IC50 of CN(C)S(=O)(=O)n1cc(-c2nccc(Nc3cc(N[C@H]4CC[C@@](C)(O)CC4)c(-c4cc(C(F)(F)F)n(C)n4)cn3)n2)cn1 [Example 330] 1.6

Form field: reported IC50 of COCn1ccc(-c2cnc(Nc3ccnc(-c4cnn(S(=O)(=O)C5CC5)c4)n3)cc2NC(C)C)n1 [Example 303] 0.2

###

- assayed_target: EGFR del19/T790M/C797S (Homo sapiens, UniProt P00533, C797S/DEL746-750/T790M)
- Sequence (P00533 with tags, fused parts or gaps DEL746-750/T790M/C797S): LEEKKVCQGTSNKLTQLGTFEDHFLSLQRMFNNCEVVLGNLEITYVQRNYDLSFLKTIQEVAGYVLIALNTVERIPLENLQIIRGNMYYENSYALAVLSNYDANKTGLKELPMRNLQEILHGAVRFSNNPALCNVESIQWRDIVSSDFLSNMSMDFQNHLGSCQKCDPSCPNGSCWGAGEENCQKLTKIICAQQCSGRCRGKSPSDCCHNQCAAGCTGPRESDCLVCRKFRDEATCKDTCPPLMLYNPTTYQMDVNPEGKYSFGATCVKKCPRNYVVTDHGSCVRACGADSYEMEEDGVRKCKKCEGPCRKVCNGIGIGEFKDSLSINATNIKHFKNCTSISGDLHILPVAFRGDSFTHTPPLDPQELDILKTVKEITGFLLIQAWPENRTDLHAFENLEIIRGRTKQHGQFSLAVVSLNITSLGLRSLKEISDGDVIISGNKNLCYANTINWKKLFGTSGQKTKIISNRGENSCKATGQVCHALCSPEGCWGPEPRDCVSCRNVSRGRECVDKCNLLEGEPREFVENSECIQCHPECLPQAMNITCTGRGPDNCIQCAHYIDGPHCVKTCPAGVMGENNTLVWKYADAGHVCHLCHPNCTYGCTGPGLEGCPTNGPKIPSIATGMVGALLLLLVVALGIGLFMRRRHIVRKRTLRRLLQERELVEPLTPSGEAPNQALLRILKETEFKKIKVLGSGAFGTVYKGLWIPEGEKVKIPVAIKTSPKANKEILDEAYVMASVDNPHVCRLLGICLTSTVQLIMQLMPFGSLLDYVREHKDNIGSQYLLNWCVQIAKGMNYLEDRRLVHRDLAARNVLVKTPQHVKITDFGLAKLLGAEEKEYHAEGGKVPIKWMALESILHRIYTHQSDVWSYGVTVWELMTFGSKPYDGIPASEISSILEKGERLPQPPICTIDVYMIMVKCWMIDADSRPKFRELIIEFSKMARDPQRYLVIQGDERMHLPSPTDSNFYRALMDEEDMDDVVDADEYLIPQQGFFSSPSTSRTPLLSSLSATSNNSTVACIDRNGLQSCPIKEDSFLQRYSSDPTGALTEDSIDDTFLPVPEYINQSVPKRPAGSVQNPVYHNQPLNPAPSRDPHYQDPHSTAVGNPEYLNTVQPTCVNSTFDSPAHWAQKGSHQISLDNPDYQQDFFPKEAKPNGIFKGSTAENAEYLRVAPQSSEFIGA
- test_description: Biochemical EGFR kinase assay (Lance Ultra TR-FRET), triple mutant del19/T790M/C797S
- experimental_context: IC50 del19/T790M/C797S (nM) 100 μM ATP, 100 μM ATP
readout: IC50 (nM)
Dear colleague, please return just the value in nM, with no unit written.

Form field: reported IC50 of `CC(C)(CO)CNc1cc(Nc2ccnc(-c3cnn(S(=O)(=O)C4CC4)c3)n2)ncc1-c1csc(C(C)(C)O)n1` 2.6

Form field: reported IC50 of `O=S(=O)(C1CC1)n1cc(-c2nccc(Nc3cc(NCC4CC5(CNC5)C4)c(-c4ccn(C(F)F)n4)cn3)n2)cn1` 0.2

Form field: reported IC50 of `O=S(=O)(C1CC1)n1cc(-c2nccc(Nc3cc(N[C@H]4CC[C@@H](NCCF)CC4)c(-c4ccn(C(F)F)n4)cn3)n2)cn1` 0.5

Form field: reported IC50 of `O=S(=O)(C1CC1)n1cc(-c2nccc(Nc3cc(N[C@H]4CC[C@@H](CO)CC4)c(-c4ccn(C5CC5)n4)cn3)n2)cn1` 0.2

Form field: reported IC50 of Cn1ccc(-c2cnc(Nc3ccnc(-c4cnn(S(=O)(=O)C5CC5)c4)n3)cc2NC2CCC(F)(CO)CC2)n1 (stereo not drawn) 0.2

Form field: reported IC50 of `CN[C@H]1CC[C@@H](Nc2cc(Nc3ccnc(-c4cnn(S(=O)(=O)C5CC5)c4)n3)ncc2-c2csc(C(C)(C)O)n2)CC1` 0.6

These measurements were taken from patent US12258327B2.
